Biological target: FGFR4 (h) (Homo sapiens)
Sequence (P22455 22-802): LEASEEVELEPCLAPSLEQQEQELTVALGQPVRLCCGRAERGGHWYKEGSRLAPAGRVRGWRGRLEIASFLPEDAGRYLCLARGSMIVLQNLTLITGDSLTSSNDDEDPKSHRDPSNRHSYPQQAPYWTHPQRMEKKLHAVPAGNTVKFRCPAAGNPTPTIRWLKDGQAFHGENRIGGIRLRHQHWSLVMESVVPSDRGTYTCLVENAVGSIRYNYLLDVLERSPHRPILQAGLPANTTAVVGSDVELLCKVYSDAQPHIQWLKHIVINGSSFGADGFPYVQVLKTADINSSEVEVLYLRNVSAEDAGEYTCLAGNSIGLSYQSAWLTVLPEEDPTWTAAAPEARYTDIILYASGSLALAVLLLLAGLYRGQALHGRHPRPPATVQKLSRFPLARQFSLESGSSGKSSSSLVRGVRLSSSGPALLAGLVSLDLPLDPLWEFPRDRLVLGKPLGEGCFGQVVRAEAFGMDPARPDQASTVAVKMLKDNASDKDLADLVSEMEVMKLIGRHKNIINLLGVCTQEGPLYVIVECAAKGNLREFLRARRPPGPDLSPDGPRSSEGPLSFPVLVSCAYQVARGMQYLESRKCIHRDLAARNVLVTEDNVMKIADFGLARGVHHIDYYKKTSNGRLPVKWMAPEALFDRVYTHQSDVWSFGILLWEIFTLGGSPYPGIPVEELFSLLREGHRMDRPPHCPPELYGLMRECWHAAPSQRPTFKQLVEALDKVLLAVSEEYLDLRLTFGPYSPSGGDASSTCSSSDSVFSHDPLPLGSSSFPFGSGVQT
Test: FGFR4 (enzymatic assay), TR-FRET
Type: biochemical
Conditions: read-out: FGFR 4 pIC50 (converted)
READOUT: IC50 (nM)

Worked examples, 2 compounds total:
[[record]]
chemical_structure = "COc1cc(OC)cc(N(CCO)c2ccc3ncc(-c4ccc(N5CCN(C)CC5)nc4)nc3c2)c1"
target_of_assay = "FGFR4 (h) (Homo sapiens)"
endpoint_value = 120

[[record]]
chemical_structure = "COc1cc(OC)cc(N(CC#Cc2ncccn2)c2ccc3ncc(-c4cccnc4)nc3c2)c1"
target_of_assay = "FGFR4 (h) (Homo sapiens)"
endpoint_value = 195


P = COc1cc(OC)cc(N(CCCNC(C)C)c2ccc3ncc(-c4ccnc(NC(=O)OC(C)(C)C)c4)nc3c2)c1
Q = COc1cc(OC)cc(N(CCNC(C)C)c2ccc3ncc(-c4cccnc4)nc3c2)c1
Ask: Which of the two gives a bigger number for IC50: P or Q ? Lab note: record the label of whichever item you select.
Result: P

The origin of these recorded values is patent US10052320B2.
